assay_notes: Apparent permeability across apical to basolateral side in human Caco2 cells by HPLC-MS/MS analysis
Assay type: ADME, cell-based
study_conditions: Caco-2
measurement_label: Papp A→B (×10⁻⁶ cm/s)
Give the number; ×10⁻⁶ cm/s is assumed, so skip it.

> print(dat)
                                smiles.repr  obs.value
1  CC(C)[C@H]1CC[C@@H](N2CCC(n3ccc4ccccc43)CC2)CC1         24
2  CC(C)[C@H]1CC[C@@H](N2CCC(n3cc(CN)c4ccccc43)CC2)CC1       4.64
3  CC(C)[C@H]1CC[C@@H](N2CCC(n3cc(CCN)c4ccccc43)CC2)CC1.Cl.Cl       4.36

// below: Papp A→B requested for another compound
The reported value for "CC(C)[C@H]1CC[C@@H](N2CCC(N3CCc4ccccc43)CC2)CC1" in terms of Papp A→B is 30

###

assay_notes: Half life in Sprague-Dawley rat plasma at 3 mg/kg, sc measured upto 8 hrs by LC-MS/MS analysis
Format: ADME, organism-based
measurement_label: half-life (h)
Give the number; h is assumed, so skip it.

> print(dat)
                                smiles.repr  unit.tag  obs.value
1  CC(C)[C@H]1CC[C@@H](N2CCC(N3CCc4ccccc43)CC2)CC1         h       2.13
2  CC(C)[C@H]1CC[C@@H](N2CCC(n3ccc4ccccc43)CC2)CC1         h       2.19

// below: half-life requested for another molecule
The reported value for "CC(C)[C@H]1CC[C@@H](N2CCC(n3cc(CN)c4ccccc43)CC2)CC1" in terms of half-life is 2.61
